- METHOD_DESCRIPTION: gradient 5% acetonitrile 3 min, to 50% in 2 min, to 85% in 15 min, held 3 min, 100 µL/min
- CONDITION_DESCRIPTION: column: Zorbax Extend-C18 2.1 x 50 mm; eluents: water / acetonitrile, 0.1% formic acid
Entries and their RP-LC retention time
Your answer should be a plain number; it is taken to be in s.

[[record]]
compound = "CC(C)(Oc1ccc(Cl)cc1)C(=O)NCCN1CCN(C(=O)c2cccs2)CC1"
result = 592

[[record]]
compound = "O=C(C1CCN(c2ncccc2-c2nc(-c3ccccc3)no2)CC1)N1CCOCC1"
result = 839

[[record]]
compound = "CCN1CCN(C(=O)C2CCCN(c3nnc4ccc(C(F)(F)F)cn34)C2)CC1 (centres undefined)"
result = 567

[[record]]
compound = "CCN1C(=O)c2ccccc2Oc2ccc(C(=O)N3CCCCCC3)cc21"
result = 900

[[record]]
compound = "CC(C)S(=O)(=O)c1ccc(CC(=O)N(Cc2cccs2)Cc2cccn2C)cc1"
result = 877

[[record]]
compound = "CCOC(=O)c1c(C)[nH]c(C(=O)N2CCC(CC(=O)NCCN(C)C)CC2)c1C"
result = 569

[[record]]
compound = "CC(=O)N1CCC(C(=O)NCc2ccc(-c3nc(-c4ccc(F)cc4)no3)s2)CC1"
result = 786

[[record]]
compound = "CCS(=O)(=O)c1nc2ccc(NS(=O)(=O)c3ccc(C(C)C)cc3)cc2s1"
result = 975

[[record]]
compound = "Cc1cc(C)c(S(=O)(=O)N2CC(F)(F)C[C@H]2COc2cccnc2)c(C)c1"
result = 834

[[record]]
compound = "CCCCN(CCNC(=O)C1CCCN(c2ncnc3c2nc2n3CCCCC2)C1)Cc1ccco1 (centres undefined)"
result = 656


State the recorded RP-LC retention time for this entry: Cc1nc(-c2ccc(C(=O)NCc3ccc4c(c3)OCO4)cc2)cs1
844

###

Entries and their RP-LC retention time
- METHOD_DESCRIPTION: gradient 5% acetonitrile 3 min, to 50% in 2 min, to 85% in 15 min, held 3 min, 100 µL/min
- CONDITION_DESCRIPTION: column: Zorbax Extend-C18 2.1 x 50 mm; eluents: water / acetonitrile, 0.1% formic acid

[[record]]
compound = "O=C(NCCNS(=O)(=O)CCOc1ccc(F)cc1)c1ccc(NC(=O)C2CC2)cc1"
result = "710 s"

[[record]]
compound = "O=S(=O)(c1ccccc1)N1CCC(c2nc(CCOCC3CC3)no2)C1 (stereo not drawn)"
result = "896 s"

[[record]]
compound = "O=C(C1CCC1)N1CCc2sc(S(=O)(=O)NCc3ccc(F)cc3Cl)cc2C1"
result = "948 s"

[[record]]
compound = "Cc1cccc(C(=O)NCc2ccc3c(c2)nnn3C)c1"
result = "700 s"

[[record]]
compound = "COc1ccc(Cl)cc1S(=O)(=O)N1C[C@@H](F)C[C@H]1C(=O)N1CCCCC1"
result = "785 s"


State the recorded RP-LC retention time for this entry: COc1cccc(Nc2nc(C)c(C(=O)Nc3ccc(F)c(Cl)c3)s2)c1
1060 s

State the recorded RP-LC retention time for this entry: COc1ccc(Br)cc1CNC(=O)C1CCCN(c2ccc(N3CCOCC3)nn2)C1 (stereo not drawn)
668 s

State the recorded RP-LC retention time for this entry: CC12CC(c3ccccc3O1)C(C(=O)N1CCCCC1)C(=O)N2 (stereo not drawn)
726 s

State the recorded RP-LC retention time for this entry: COc1ccc(C)cc1NC(=O)Cc1csc2nc(-c3cccc(Br)c3)cn12
1060 s

State the recorded RP-LC retention time for this entry: O=C(Nc1ccc(OCc2nnc(-c3ccccc3)o2)cc1)c1ccccn1
905 s

###

- METHOD_DESCRIPTION: gradient 5% acetonitrile 3 min, to 50% in 2 min, to 85% in 15 min, held 3 min, 100 µL/min
- CONDITION_DESCRIPTION: column: Zorbax Extend-C18 2.1 x 50 mm; eluents: water / acetonitrile, 0.1% formic acid
Entry flag: y if RP-LC retention time reaches 800 s; n if it does not.

[[record]]
molecule = "COc1ccc(C(=O)NC2(c3nc(-c4cccnc4)no3)CCCCC2)cc1F"
class_label = "y"

[[record]]
molecule = "CC(C)N1C[C@H](Oc2ccccc2)[C@@H]1C1CCN(S(=O)(=O)c2cccnc2)CC1"
class_label = "n"

[[record]]
molecule = "N#Cc1ccc(-c2nc(C3CC(=O)N(c4ccc(F)cc4)C3)no2)cc1 (centres undefined)"
class_label = "y"

[[record]]
molecule = "O=c1ccc(-c2ccc(F)cc2)nn1CCc1nc(-c2ccncc2)no1"
class_label = "n"


Evaluate Cc1cccc(-c2nc3ccccn3c2NC(=O)NC2CCCC2)c1 : RP-LC retention time at minimum 800 s?
n

Evaluate Cc1cc(C)cc(NC(=O)CSc2cc(N3CCCCC3)ncn2)c1 : RP-LC retention time at minimum 800 s?
y

Evaluate Cc1cc(C)n2nc(SCC(=O)Nc3ccccc3[N+](=O)[O-])nc2n1 : RP-LC retention time at minimum 800 s?
n

Evaluate CCC(=O)N1CCc2cc(-c3ccc(C(=O)NC(C)C)cc3)ccc21 : RP-LC retention time at minimum 800 s?
y

Evaluate CCOc1ccccc1NC(=O)C1CCN(S(=O)(=O)c2cn(C)cn2)CC1 : RP-LC retention time at minimum 800 s?
y

###

- METHOD_DESCRIPTION: gradient 5% acetonitrile 3 min, to 50% in 2 min, to 85% in 15 min, held 3 min, 100 µL/min
- CONDITION_DESCRIPTION: column: Zorbax Extend-C18 2.1 x 50 mm; eluents: water / acetonitrile, 0.1% formic acid
ATTRIBUTE_MEASURED: RP-LC retention time (s)
Your answer should be a plain number; it is taken to be in s.

[[record]]
compound = "O=C1CO[C@@H](C(=O)O)[C@H](c2ccccc2)N1"
value_unit = "s"
result = 576

[[record]]
compound = "O=C(c1c[nH]c2ccccc12)N1CCN(c2cc(-c3cccs3)[nH]n2)CC1"
value_unit = "s"
result = 731

[[record]]
compound = "Cc1ccccc1NC(=O)N(C)CCc1noc(COc2ccccc2F)n1"
value_unit = "s"
result = 926

[[record]]
compound = "Cc1ccc(NC(=O)N2CCCC2c2c(C)noc2C)cc1F (stereo not given)"
value_unit = "s"
result = 809


Continue with the compound presented below.
State the recorded RP-LC retention time for this entry: CS(=O)(=O)N1CCN(CCNC(=O)Nc2cccc(C(F)(F)F)c2)CC1
576

###

- METHOD_DESCRIPTION: gradient 5% acetonitrile 3 min, to 50% in 2 min, to 85% in 15 min, held 3 min, 100 µL/min
- CONDITION_DESCRIPTION: column: Zorbax Extend-C18 2.1 x 50 mm; eluents: water / acetonitrile, 0.1% formic acid
ATTRIBUTE_MEASURED: RP-LC retention time (s)
Your answer should be a plain number; it is taken to be in s.

Examples from the recorded data:
[[record]]
compound = "CCCN1CCN(c2cc(C(=O)O)c3cc(NS(=O)(=O)c4ccccc4C)ccc3n2)CC1"
result = 605

[[record]]
compound = "CSc1ccc(-c2nc3cnccn3c2Nc2ccc3c(c2)OCO3)cc1"
result = 890

[[record]]
compound = "O=S(=O)(c1ccc(Cl)cc1)N1CCN(c2ccnc3cc(Cl)ccc23)CC1"
result = 758

[[record]]
compound = "CCOc1ccc(-n2ccn3c(CCCC(=O)NCCc4c[nH]c5ccccc45)nnc3c2=O)cc1"
result = 761


State the recorded RP-LC retention time for this entry: CCOC(=O)N1CCC(NC(=O)c2nc(-c3cnccn3)no2)CC1
631

State the recorded RP-LC retention time for this entry: Cc1ccc(C)c(NC(=O)CN2C(=O)CCc3cc(S(=O)(=O)N4CCCCC4C)ccc32)c1 (centres undefined)
983

State the recorded RP-LC retention time for this entry: COc1ccc(C2CC(=O)N(c3ccc4c(c3)OCCO4)C(=O)C2)cc1
833

State the recorded RP-LC retention time for this entry: Cn1ncc2c(N3CCOCC3)nc(C(=O)NCc3ccccc3)nc21
701

State the recorded RP-LC retention time for this entry: Cc1noc(-c2ccc(-n3cnc(C(=O)NCc4ccc(Cl)cc4)c3)nc2)n1
865

State the recorded RP-LC retention time for this entry: COc1ccccc1N1CCN(c2nc3c(c(Nc4ccccc4)n2)C(=O)CCC3)CC1
1270

State the recorded RP-LC retention time for this entry: CN(C[C@@H]1COCCO1)S(=O)(=O)Nc1ccc2ccc3ncc(-c4cnn(C)c4)cc3c(=O)c2c1
778

State the recorded RP-LC retention time for this entry: COC(=O)COC(=O)c1cn(-c2cccc(F)c2)c(=O)c2ccccc12
938

State the recorded RP-LC retention time for this entry: O=C(NCc1cccc(F)c1)c1cc(N2CCCC2)n2nccc2n1
946

State the recorded RP-LC retention time for this entry: O=C(Cc1ccccc1Br)NC1CCN(c2cc(-c3ccc(Cl)cc3)[nH]n2)C1 (centres undefined)
831

State the recorded RP-LC retention time for this entry: O=C(NC1CCCC1)c1ccc2ncnc(N3CCCCC3)c2c1
640

State the recorded RP-LC retention time for this entry: O=C1CC(c2noc(-c3ccccc3Cl)n2)CN1c1ccc(F)cc1 (centres undefined)
964

State the recorded RP-LC retention time for this entry: CCOC(=O)c1c(S(=O)(=O)N2CCC(C(=O)Nc3nc(C)cs3)CC2)c(C)n(C)c1C
780

State the recorded RP-LC retention time for this entry: Cc1cccc(-c2nnc(-c3nc(NCCCN4CCCC4=O)c4ccccc4n3)o2)c1
814

State the recorded RP-LC retention time for this entry: Cc1ccc(Cl)cc1N1CCN(c2ccc3cc(S(=O)(=O)N4CCCCC4C)ccc3n2)CC1 (centres undefined)
1420

meta.source: the METLIN SMRT retention time set (Domingo-Almenara et al. 2019)
